Where these numbers come from: the supplement of paper PMC11451515

tested on: SEM cells; test: cell viability relative to DMSO control; higher = less cytotoxic; details: RPMI 5 mM glucose + 10% FBS; 48 h; 0.00702 µM
METRIC: cell viability (%)
One number for each entry, in %.

Give measured cell viability for every item shown.
1. COc1cc2c(Nc3ccc(NC(=O)c4ccccc4)cc3)ncnc2cc1OCCCN1CCOCC1
2. COc1cc2nccc(Oc3ccc(NC(=O)Nc4ccc(F)cc4F)c(F)c3)c2cc1OC
3. Cc1nc(Nc2ncc(C(=O)Nc3c(C)cccc3Cl)s2)cc(N2CCN(CCO)CC2)n1

stdout:
[112, 87.7, 64.9]

Hello, I would appreciate it if you could give cell viability for each entry below.
1. Clc1cccc(-c2nnnn2Cc2cccnc2)c1Cl
2. Cl.c1cnc2cc3c(cc2n1)C1CNCC3C1
3. CN(C)CCOC(c1ccccc1)c1ccccc1
4. CO[C@H]1C[C@@H]2CC[C@@H](C)[C@@](O)(O2)C(=O)C(=O)N2CCCC[C@H]2C(=O)O[C@H]([C@H](C)C[C@@H]2CC[C@@H](OP(C)(C)=O)[C@H](OC)C2)CC(=O)[C@H](C)/C=C(\C)[C@@H](O)[C@@H](OC)C(=O)[C@H](C)C[C@H](C)/C=C/C=C/C=C/1C
5. O=C1c2c(O)cccc2[C@H]([C@@H]2O[C@H](CO)[C@@H](O)[C@H](O)[C@H]2O)c2cc(CO)cc(O)c21
6. CC/1=C/N([C@@H]2C[C@@H](O)[C@H](CO)O2)C(=O)NC1=O
7. CC[C@H]1OC(=O)[C@H](C)[C@@H](O[C@H]2C[C@@](C)(OC)[C@@H](O)[C@H](C)O2)[C@H](C)[C@@H](O[C@@H]2O[C@@H](C)C[C@H](N(C)C)[C@H]2O)[C@](C)(O)C[C@@H](C)C(=O)[C@H](C)[C@@H](O)[C@]1(C)O
8. CC1SC/2=C(C(O)=O)/C(=O)C3=CC(=C(C=C3N12)N4CCN(CC4)C\C5=C(C)\OC(=O)O5)F (centres undefined)

stdout:
1: 70.1; 2: 91.3; 3: 113; 4: 105; 5: 92.8; 6: 100; 7: 101; 8: 128
